Molecular target: Sko1 (UniProt Q02100)
Sequence: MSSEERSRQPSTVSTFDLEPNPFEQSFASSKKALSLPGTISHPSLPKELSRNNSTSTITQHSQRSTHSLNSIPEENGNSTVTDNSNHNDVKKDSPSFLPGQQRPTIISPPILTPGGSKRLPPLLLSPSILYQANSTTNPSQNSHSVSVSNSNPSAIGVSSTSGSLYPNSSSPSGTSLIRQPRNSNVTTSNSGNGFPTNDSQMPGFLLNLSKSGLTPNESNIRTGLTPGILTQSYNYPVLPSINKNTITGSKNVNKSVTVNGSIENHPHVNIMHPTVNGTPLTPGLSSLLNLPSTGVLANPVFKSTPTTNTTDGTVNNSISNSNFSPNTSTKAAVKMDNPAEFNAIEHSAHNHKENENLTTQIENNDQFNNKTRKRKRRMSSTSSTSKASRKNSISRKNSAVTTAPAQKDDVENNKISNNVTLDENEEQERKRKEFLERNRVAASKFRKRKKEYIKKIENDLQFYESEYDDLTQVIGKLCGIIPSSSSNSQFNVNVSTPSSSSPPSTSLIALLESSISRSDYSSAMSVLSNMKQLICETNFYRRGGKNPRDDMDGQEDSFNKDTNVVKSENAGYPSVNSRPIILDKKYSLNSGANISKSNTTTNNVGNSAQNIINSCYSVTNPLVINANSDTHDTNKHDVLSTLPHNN
Assay: PBM E-score (8-mer binding enrichment) (E-score (-0.5 to 0.5)); higher = stronger / more preferred TF binding
Details: protein concentration: 200 nM; construct: GST-full length
Over roughly 33,000 sequences, “E-score (-0.5 to 0.5)” has its median near -0.032; the highest 2% begin near 0.36. The list comes from a sample in which the highest values are over-represented; it also holds close analogues and randomly drawn sequences.
Each entry below carries its recorded PBM E-score.
Lab note: write the figure by itself, no unit.

// known answers, use as guide
| residue-codes | PBM E-score |
| --- | --- |
| GACGTAAC | 0.467 |
| CCGAACTC | -0.125 |
| CGTTTACA | 0.138 |
| ATTGCGCA | 0.251 |
| GGTCATTA | 0.232 |
| AGAGCACC | -0.328 |
| CCTGTGCC | -0.224 |
| GTTGCGGA | 0.0145 |

Ask: Consider the sequence shown here: AGTCATTA What is its recorded PBM E-score?
Reply: 0.032

Ask: Now consider CTACGAAA and answer again.
Reply: 0.214

Ask: Now consider GGTCCCAC and answer again.
Reply: -0.0859

Ask: Now consider AGCTAACA and answer again.
Reply: -0.0839

Ask: Now consider CGAATACG and answer again.
Reply: 0.406

Ask: Now consider ACCGTAAC and answer again.
Reply: -0.135
